Heads up, these molecules all have pIC50 values measured for E. coli RmlA (Escherichia coli, UniProt P37744).
pIC50: −log10 of the molar value.

Please report the recorded pIC50 for Cc1cn([C@H]2C[C@H](O)[C@@H](COP(=O)(O)OP(=O)(O)O[C@@H]3O[C@@H](C)[C@H](O)[C@@H](O)[C@H]3O)O2)c(=O)[nH]c1=O [compound 10, dTDP-α-L-Rha (α-anomer 10)] .
< 3.30

Please report the recorded pIC50 for Cc1cn([C@H]2C[C@H](O)[C@@H](COP(=O)(O)OP(=O)(O)O[C@H]3O[C@@H](CO)[C@H](O)[C@@H](O)[C@H]3O)O2)c(=O)[nH]c1=O [compound 11, dTDP-β-L-Man] .
< 3.30

Please report the recorded pIC50 for Cc1cn([C@H]2C[C@H](O)[C@@H](COP(=O)(O)OP(=O)(O)O[C@H]3O[C@@H](C)[C@H](O)[C@@H](O)[C@H]3O)O2)c(=O)[nH]c1=O [compound 1, dTDP-β-L-Rha] .
3.86

====

Answer each item with its documented IC50.
# SYSTEM_TESTED: SALTY RmlA (Salmonella enterica)
# Sequence (P26393 whole entry): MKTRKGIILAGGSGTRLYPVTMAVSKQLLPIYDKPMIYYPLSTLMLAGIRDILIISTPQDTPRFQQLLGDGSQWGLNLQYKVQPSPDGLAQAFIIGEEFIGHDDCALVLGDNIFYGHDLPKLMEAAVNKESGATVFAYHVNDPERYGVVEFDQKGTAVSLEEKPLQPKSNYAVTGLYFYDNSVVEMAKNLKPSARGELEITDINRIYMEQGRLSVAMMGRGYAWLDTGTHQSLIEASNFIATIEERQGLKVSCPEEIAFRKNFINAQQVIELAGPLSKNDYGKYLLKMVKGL

Field: IC50 (SALTY RmlA (Salmonella enterica)). Entry: Cc1cn([C@H]2C[C@H](O)[C@@H](COP(=O)(O)OP(=O)(O)O[C@H]3O[C@@H](CO)[C@H](O)[C@@H](O)[C@H]3O)O2)c(=O)[nH]c1=O
> 500 µM

Field: IC50 (SALTY RmlA (Salmonella enterica)). Entry: Cc1cn([C@H]2C[C@H](O)[C@@H](COP(=O)(O)OP(=O)(O)O[C@@H]3O[C@@H](C)[C@H](O)[C@@H](O)[C@H]3O)O2)c(=O)[nH]c1=O
> 500 µM

Field: IC50 (SALTY RmlA (Salmonella enterica)). Entry: Cc1cn([C@H]2C[C@H](O)[C@@H](COP(=O)(O)OP(=O)(O)O[C@H]3O[C@@H](C)[C@H](O)[C@@H](O)[C@H]3O)O2)c(=O)[nH]c1=O
109 µM
